Hi there, I'd appreciate the recorded inhibition at 0.412 µM for every entry that follows.
# target.under.test: purified human HDAC6 (Homo sapiens, UniProt Q9UBN7)
# Construct: purchased BPS Bioscience 5006
# Sequence (Q9UBN7 whole entry): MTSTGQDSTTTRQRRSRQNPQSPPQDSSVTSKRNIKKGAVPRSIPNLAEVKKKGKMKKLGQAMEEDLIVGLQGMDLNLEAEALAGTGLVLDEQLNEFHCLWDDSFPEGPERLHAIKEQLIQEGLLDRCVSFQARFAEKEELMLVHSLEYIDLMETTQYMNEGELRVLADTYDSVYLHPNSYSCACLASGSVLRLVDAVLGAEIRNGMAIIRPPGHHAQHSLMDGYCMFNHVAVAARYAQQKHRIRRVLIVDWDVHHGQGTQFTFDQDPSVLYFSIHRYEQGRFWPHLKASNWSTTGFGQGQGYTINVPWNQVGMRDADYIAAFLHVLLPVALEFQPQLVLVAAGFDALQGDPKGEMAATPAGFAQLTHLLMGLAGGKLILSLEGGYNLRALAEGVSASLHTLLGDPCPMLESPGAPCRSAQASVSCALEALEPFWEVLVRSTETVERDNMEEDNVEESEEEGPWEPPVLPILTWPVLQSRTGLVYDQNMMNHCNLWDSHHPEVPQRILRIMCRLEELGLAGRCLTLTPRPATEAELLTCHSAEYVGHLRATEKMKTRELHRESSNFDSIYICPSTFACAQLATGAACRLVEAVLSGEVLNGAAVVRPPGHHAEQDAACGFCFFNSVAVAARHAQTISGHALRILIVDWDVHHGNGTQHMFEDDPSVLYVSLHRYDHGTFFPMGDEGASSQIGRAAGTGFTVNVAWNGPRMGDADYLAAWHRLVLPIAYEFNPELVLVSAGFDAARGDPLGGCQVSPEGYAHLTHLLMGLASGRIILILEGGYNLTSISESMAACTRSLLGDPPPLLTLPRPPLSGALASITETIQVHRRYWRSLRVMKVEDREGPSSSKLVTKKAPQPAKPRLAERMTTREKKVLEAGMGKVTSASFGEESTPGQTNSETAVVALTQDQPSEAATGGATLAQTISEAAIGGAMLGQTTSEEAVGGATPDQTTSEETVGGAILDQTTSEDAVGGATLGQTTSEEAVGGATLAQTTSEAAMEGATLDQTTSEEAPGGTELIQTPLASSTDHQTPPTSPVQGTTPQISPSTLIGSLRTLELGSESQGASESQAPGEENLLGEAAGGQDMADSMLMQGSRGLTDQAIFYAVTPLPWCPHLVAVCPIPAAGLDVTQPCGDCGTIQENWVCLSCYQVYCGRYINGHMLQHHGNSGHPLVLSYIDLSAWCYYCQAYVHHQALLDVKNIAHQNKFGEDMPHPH
# assay.summary: HDAC6 Enzyme Assay
# Type: biochemical
# run.conditions: compound concentration 0.412 μM, read-out: Percent Inhibition
Answers are plain numbers, in %.

Here are 3 compounds together with their reported answers.
[[record]]
compound = "O=C(NO)c1ccc2c(=O)[nH]c(COc3cccc(C(F)(F)F)c3)nc2c1 [Compound I-110]"
measured_value = 76

[[record]]
compound = "Cn1c(NCc2ccc(Cl)cc2)nc2ccc(C(=O)NO)cc2c1=O [Compound I-165]"
measured_value = 59.5

[[record]]
compound = "COc1cc(Cn2ccc3ccc(C(=O)NO)cc3c2=O)cc(OC)c1 [Compound I-202]"
measured_value = 96.1


List inhibition at 0.412 µM for every entry below, keeping the order given.
1. O=C(NO)c1ccc2ccn(Cc3ccc(-n4cccn4)cc3)c(=O)c2c1 [Compound I-289]
2. O=C(NO)c1ccc2ccn(C(c3ccccc3)c3ccccc3)c(=O)c2c1 [Compound I-19]

[96.7, 94.4]
